Data credit: PubChem BioAssay AID1159580

test: chemical genetic growth profiling, strain panel (AID 1159580);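 further: tested at 20 µM; growth read once vehicle control cultures reached saturation at 30 °C; 1 = growth at the plate median or of vehicle wells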; conditions: S. cerevisiae deletion strains, growth OD, locus YPL051W, strain arl3
Screen size: about 5,500 compounds; about 2,000 (36%) were called active. Inconclusive results (about 18%) are left out. No stated cut-off is given here; in the data, active means normalized growth mostly below about 0.91 (no sharp cut-off); inconclusive means no clear call, values can overlap the other calls; inactive means mostly above about 0.92. The list shows a part of the results.
A correct response names exactly one class from active, inactive

Please state the recorded outcome for this compound: `CO[C@@]1(NC(=O)Cc2cccs2)C(=O)N2C(C(=O)O)=C(COC(N)=O)CS[C@@H]21`
inactive

Please state the recorded outcome for this compound: `NCCNCCNCCN`
inactive

Please state the recorded outcome for this compound: `CNCC[C@@H](Oc1ccccc1)c1ccccc1`
inactive

Please state the recorded outcome for this compound: CC1=CC2C(C(C)C)CCC(C)(O)C2CC1 (stereo not drawn)
inactive

Please state the recorded outcome for this compound: `CC(=O)N[C@@H](Cc1c[nH]c2ccccc12)C(=O)O`
inactive

Please state the recorded outcome for this compound: `NCCc1c[nH]c2ccccc12`
inactive

Please state the recorded outcome for this compound: `CN1CCN(CC(=O)N2c3ccccc3C(=O)Nc3cccnc32)CC1`
inactive

Please state the recorded outcome for this compound: `CCC1(CC)C(=O)C=CNC1=O`
inactive

Please state the recorded outcome for this compound: `COc1ccc(C(=O)c2ccc(O)cc2)c(O)c1O`
inactive

Please state the recorded outcome for this compound: `COc1ccc(C(=O)c2ccccc2)c(O)c1O`
inactive

Please state the recorded outcome for this compound: `CCOc1ccc(C(=O)c2ccc(OC)c(O)c2O)cc1`
active

Please state the recorded outcome for this compound: `CC1(C)C=Cc2cc3ccc(=O)oc3cc2O1`
active

Please state the recorded outcome for this compound: `CCOc1ccc(C(=O)c2ccc(O)c(O)c2O)cc1`
active

* * *

experiment: chemical genetic growth profiling, strain panel (AID 1159580);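 further: tested at 20 µM; growth read once vehicle control cultures reached saturation at 30 °C; 1 = growth at the plate median or of vehicle wells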; settings: S. cerevisiae deletion strains, growth OD, locus YBR021W, strain FUR4, stronger effect = lower value
The campaign covered roughly 5,500 compounds. About 2,000 (36%) were called active. Another 18% or so got no clear call; they are omitted. Some of the results follow.
OBSERVATION TYPE: normalized growth
The answer should be a number; do not append a unit.

Reported normalized growth ( `O=C(O)c1cc([N+](=O)[O-])ccc1NCCCc1ccccc1` ) = 0.892

Reported normalized growth ( `O=C(O)c1cc(=O)c2c(Cl)cc(Cl)cc2[nH]1` ) = 1

Reported normalized growth ( COc1cc2c(cc1OC)[C@@]13CCN4CC5=CCOC6CC(=O)N2C1[C@H]6[C@H]5C[C@H]43 (stereo partly drawn) ) = 0.985

Reported normalized growth ( CC(=O)O[C@H]1CC[C@]2(C)C3CC(=O)[C@]4(C)C(C(C)=O)=CCC4C3CC[C@H]2C1 (stereo partly drawn) ) = 1

Reported normalized growth ( CC(NCCC(c1ccccc1)c1ccccc1)c1ccccc1 (stereo not drawn) ) = 0.447

Reported normalized growth ( CCc1cccc2c3c([nH]c12)C(CC)(CC(=O)O)OCC3 (stereo not drawn) ) = 1.01

Reported normalized growth ( OC(c1cc(C(F)(F)F)nc2c(C(F)(F)F)cccc12)C1CCCCN1 (stereo not drawn) ) = 0.965

Reported normalized growth ( CC(=O)O[C@@H]1CC[C@]2(C)C3CC[C@]4(C)C(=O)CCC4C3CC[C@H]2C1 (stereo partly drawn) ) = 0.861

Reported normalized growth ( `O=C1c2ccccc2C(=O)C1c1ccccc1` ) = 1

Reported normalized growth ( CC(=O)OCC(=O)[C@@]1(O)CCC2C3CC[C@@H]4C[C@H](OC(C)=O)CC[C@]4(C)C3C(=O)C[C@@]21C (stereo partly drawn) ) = 0.972

Reported normalized growth ( CC(=O)O[C@H]1CC[C@]2(C)C3CC[C@@]4(C)C(CC5O[C@@]6(CCC(C)CO6)[C@@H](C)C54)C3CC[C@@H]2C1 (stereo partly drawn) ) = 0.996

Reported normalized growth ( `CCC1(CC)C(=O)C=CNC1=O` ) = 1.02

Reported normalized growth ( `Cc1c(NC(=O)c2cccnc2)c(=O)n(-c2ccccc2)n1C` ) = 1.03

Reported normalized growth ( `c1ccc([C@H]2CN3CCSC3=N2)cc1` ) = 0.956

Reported normalized growth ( NC1CC1c1ccccc1 (stereo not drawn) ) = 1.02

Reported normalized growth ( NC1C[C@H]1c1ccccc1 (stereo partly drawn) ) = 0.983

Reported normalized growth ( `CC1=NN(c2ccccc2)C(=O)C1` ) = 0.993

Reported normalized growth ( CC(=O)O[C@H]1CC[C@]2(C)C3CC[C@@]4(C)C(CC5O[C@@]6(CCC(C)CO6)[C@@H](C)C54)C3CC[C@H]2C1 (stereo partly drawn) ) = 1

Reported normalized growth ( `NC(N)=NC(N)=Nc1ccccc1` ) = 1.02

Reported normalized growth ( `CN1CCN(CC(=O)N2c3ccccc3C(=O)Nc3cccnc32)CC1` ) = 1.02

Reported normalized growth ( CC1=CC2C(C(C)C)CCC(C)(O)C2CC1 (stereo not drawn) ) = 0.999

Reported normalized growth ( `COc1cc(O)cc(OC)c1OC` ) = 1.01

Reported normalized growth ( `CC1(C)C=Cc2cc3ccc(=O)oc3cc2O1` ) = 0.95
